System: thromboxane B2 (TXB2)
protocol.notes: Serum TXB2 level (ELISA) in BLM-induced systemic sclerosis mouse model
Assay type: in vivo, Female BALB/c mice
assay.conditions: serum; 0.10 mmol/kg once a day for 28 days, oral (gavage) (Sodium Ozagrel: intravenous injection); mean ± SE, n = 8; blank 74.19±14.76, model 261.91±10.96
Overview of reported TXB2 across a group of molecules:

molecule: COc1cc(C(=O)[O-])ccc1OCCn1ccnc1.[Na+] [HY-2]
TXB2 / pg/mL: 215.00
--
molecule: O=C(O)/C=C/c1ccc(Cn2ccnc2)cc1 [Sodium Ozagrel, sodium ozagrel]
TXB2 / pg/mL: 196.54
--
molecule: CC(=O)Oc1ccccc1C(=O)O [Aspirin, aspirin]
TXB2 / pg/mL: 239.57
--
molecule: COC(=O)[C@H](c1ccccc1Cl)N1CCc2sccc2C1 [Clopidogrel, clopidogrel]
TXB2 / pg/mL: 208.46
--
molecule: CCCSc1nc(N[C@@H]2C[C@H]2c2ccc(F)c(F)c2)c2nnn([C@@H]3C[C@H](OCCO)[C@@H](O)[C@H]3O)c2n1 [Ticagrelor, ticagrelor]
TXB2 / pg/mL: 197.76
--
molecule: OCCN(CCO)c1nc(N2CCCCC2)c2nc(N(CCO)CCO)nc(N3CCCCC3)c2n1 [Dipyridamole, dipyridamole]
TXB2 / pg/mL: 248.84

Where do these numbers come from? They come from patent EP4599829A1.
